Entry source: PubChem BioAssay (NCATS)

biological target: Glucocorticoid receptor (Homo sapiens) (UniProt P04150); assay: GR-EFC Redistribution (AID 451); conditions: CHO-K1 GR-EFC translocation, beta-gal luminescence, 2 h; further: potency means the concentration at half of the fitted maximal effect
Sequence (P04150 whole entry, looked up): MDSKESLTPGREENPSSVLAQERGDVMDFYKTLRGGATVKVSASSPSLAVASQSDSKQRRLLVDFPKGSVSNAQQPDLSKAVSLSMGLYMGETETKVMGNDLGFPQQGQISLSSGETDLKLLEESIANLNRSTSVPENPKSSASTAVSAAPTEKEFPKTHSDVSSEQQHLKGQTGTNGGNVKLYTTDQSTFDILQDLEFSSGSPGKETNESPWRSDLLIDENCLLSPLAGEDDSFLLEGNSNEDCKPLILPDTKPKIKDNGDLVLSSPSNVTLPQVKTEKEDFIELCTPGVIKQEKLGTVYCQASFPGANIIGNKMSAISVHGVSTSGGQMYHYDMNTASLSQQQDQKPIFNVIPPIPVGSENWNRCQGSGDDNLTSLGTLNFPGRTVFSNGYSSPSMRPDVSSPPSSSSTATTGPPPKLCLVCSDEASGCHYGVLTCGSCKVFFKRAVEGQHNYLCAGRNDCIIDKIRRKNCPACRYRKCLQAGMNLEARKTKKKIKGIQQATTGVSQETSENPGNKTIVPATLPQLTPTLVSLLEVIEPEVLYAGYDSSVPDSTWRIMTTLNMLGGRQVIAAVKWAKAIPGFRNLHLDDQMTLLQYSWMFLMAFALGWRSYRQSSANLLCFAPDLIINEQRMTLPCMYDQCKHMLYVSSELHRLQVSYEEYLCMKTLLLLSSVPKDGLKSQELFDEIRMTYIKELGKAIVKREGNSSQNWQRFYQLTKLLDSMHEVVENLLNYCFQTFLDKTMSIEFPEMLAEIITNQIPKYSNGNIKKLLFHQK
Activity calls are given as the source filed them. The call rests on the fitted dose curve.
valueType: Potency

// worked examples, Potency included
# input Report Potency for "CN(CCO)Cc1ncccc1O" please.
# output > 9.22 µM (inactive)

# input Report Potency for "Clc1ccc(CSCc2ccc(Cl)cc2Cl)c(Cl)c1" please.
# output > 9.22 µM (inactive)

# input Report Potency for "CC[C@H](C)[C@@H]1O[C@]2(CC[C@@H]1C)C[C@H]1C[C@H](CC=C(C)[C@@H](O[C@H]3C[C@H](OC)[C@H](O[C@H]4C[C@H](OC)[C@H](O)[C@H](C)O4)[C@H](C)O3)[C@@H](C)C=CC=C3CO[C@@H]4[C@@H](O)C(C)=C[C@H](C(=O)O1)[C@@]34O)O2" please.
# output > 46 µM (inactive)

Batch: Potency for all items listed.
1. N#CCCn1c(=O)c(-c2ccccc2)nc2cnc(Oc3ccccc3)nc21
2. CC(C)[C@@H]1O[C@H](/C=C\c2ccccc2)OCC1(C)C

# output
1: > 46 µM (inactive); 2: > 9.22 µM (inactive)

====

target: Glucocorticoid receptor (Homo sapiens) (UniProt P04150); assay: GR-EFC Redistribution (AID 451); details: CHO-K1 GR-EFC translocation, beta-gal luminescence, 2 h; further: potency means the concentration at half of the fitted maximal effect
Activity calls are given as the source filed them. Calls come from the whole dose curve.
valueType: Potency

// worked examples, Potency included
# input Report Potency for "Cc1ccccc1CNc1ncnc2c1ncn2[C@@H]1O[C@@H](CO)[C@H](O)[C@@H]1O" please.
# output > 46 µM (inactive)

# input Report Potency for "OC[C@H](S)CS" please.
# output > 9.22 µM (inactive)

# input Report Potency for "O=[N+]([O-])c1ccc2c(N=Nc3ccc4ccccc4c3O)c(O)cc(S(=O)(=O)O)c2c1" please.
# output > 9.22 µM (inactive)

Batch: Potency for all items listed.
1. C[C@@H](CSC(=N)N)C(N)=O
2. CSc1ccc(NC(=O)Nc2cc(C)ccn2)cc1
3. CN(C)CCCn1cnc2cc(Cl)c(Cl)cc21
4. Oc1ccccc1CNCc1ccccc1O
5. CSc1nc(N)c2ncn([C@@H]3O[C@@H](COP(=O)(O)OP(=O)(O)OP(=O)(O)O)[C@@H](O)[C@H]3O)c2n1
6. CC1=C[N+](=O)c2ccccc2[N+]1=O
7. C=CCSc1nc2ccccc2c(=O)n1Cc1ccco1

# output
1: > 9.22 µM (inactive); 2: > 9.22 µM (inactive); 3: > 9.22 µM (inactive); 4: > 9.22 µM (inactive); 5: > 46 µM (inactive); 6: > 9.22 µM (inactive); 7: > 9.22 µM (inactive)

Batch: Potency for all items listed.
1. O=C1CNCCCN2CCN(CCCNCC(=O)Nc3ccc(cc3)S(=O)(=O)c3ccc(cc3)NC(=O)CNCCCN3CCN(CCCNCC(=O)Nc4ccc(cc4)S(=O)(=O)c4ccc(cc4)N1)CC3)CC2
2. CCC(=O)[C@@H](c1ccccc1)c1ccccn1

# output
["> 9.22 µM (inactive)", "> 9.22 µM (inactive)"]

Batch: Potency for all items listed.
1. Nc1ncnc2nc(-c3ccc(C[P+](c4ccccc4)(c4ccccc4)c4ccccc4)cc3)[nH]c12
2. c1ccc2c(c1)nnn2CN1CCOCC1

# output
1: > 9.22 µM (inactive); 2: > 9.22 µM (inactive)

Batch: Potency for all items listed.
1. COc1cccc2c1C(=O)c1c(O)c3c(c(O)c1C2=O)C[C@@](O)(C(=O)CO)C[C@H]3O[C@H]1C[C@@H](N)[C@H](O)[C@@H](C)O1.[W]
2. CN1C[C@@H](O)[C@@H](O)[C@@H](O)[C@@H]1CO
3. CC(=O)Nc1nc(NC(C)=O)c2[nH]c(CO)nc2n1
4. Nc1nc(-c2ccccc2)c(-c2ccccc2)c(-c2nc(N)nc(-c3ccccc3)c2-c2ccccc2)n1
5. N#C[C@H](C(=O)O)C(c1c(Cl)cccc1Cl)[C@H](C#N)C(=O)O
6. c1cc2c(cc1C(N1CCNCC1)N1CCNCC1)OCO2

# output
> 9.22 µM (inactive)
> 46 µM (inactive)
> 9.22 µM (inactive)
> 9.22 µM (inactive)
> 9.22 µM (inactive)
> 9.22 µM (inactive)
